TARGET UNDER TEST: HLA-A*11:01
TEST DESCRIPTION: IEDB peptide-MHC binding, purified MHC/competitive/radioactivity; filed as Kd, often an IC50 or EC50 that approximates it; bounds were set here for any values at or beyond the usual limits of such assays
EXPERIMENTAL SETUP: source organism: Vaccinia virus WR
sequences and their reported Kd

| INPUT SEQUENCE | Kd |
| --- | --- |
| NLEMIDERKY | ≥ 69.8 µM |
| DVRDKRRKY | ≥ 77.9 µM |
| ELAELLEMKY | ≥ 29.5 µM |

###

TARGET UNDER TEST: HLA-A*31:01
TEST DESCRIPTION: IEDB peptide-MHC binding, purified MHC/competitive/radioactivity; filed as Kd, often an IC50 or EC50 that approximates it; bounds were set here for any values at or beyond the usual limits of such assays
EXPERIMENTAL SETUP: source organism: Vaccinia virus WR
Reported Kd values follow for various sequences
PROPERTY NAME: Kd

| INPUT SEQUENCE | TARGET UNDER TEST | VALUE |
| --- | --- | --- |
| ELYVSSSYK | HLA-A*31:01 | ≥ 77.9 µM |
| VSDFRDYQSY | HLA-A*31:01 | ≥ 70 µM |
| KTNSTVDVR | HLA-A*31:01 | 0.011 µM |
| DILTYNKTSK | HLA-A*31:01 | ≥ 38.1 µM |
| ESNIEIMDK | HLA-A*31:01 | ≥ 77.9 µM |
| ELAELLEMKY | HLA-A*31:01 | ≥ 50.8 µM |
| NLEMIDERKY | HLA-A*31:01 | ≥ 24.2 µM |
| VTDLENRLKK | HLA-A*31:01 | ≥ 37.7 µM |
| QQLEDIFMR | HLA-A*31:01 | 1.19 µM |
| KIKQDVRDK | HLA-A*31:01 | 9.94 µM |
| FASADNHPK | HLA-A*31:01 | 12.4 µM |
| SSIDVDKRTK | HLA-A*31:01 | 0.752 µM |
| MTIREFPRK | HLA-A*31:01 | 0.0998 µM |
| SADNHPKMIK | HLA-A*31:01 | 0.0337 µM |
| IILAALFMY | HLA-A*31:01 | 11.4 µM |
| FLLRHYYNKR | HLA-A*31:01 | 0.0162 µM |
| AISAVYFKAK | HLA-A*31:01 | 1.64 µM |
| RIVTVTTKDY | HLA-A*31:01 | 18.3 µM |
| TLILSNKLLY | HLA-A*31:01 | 18 µM |
| EIKAEMQLK | HLA-A*31:01 | ≥ 43.9 µM |
| LIHDNIMYTY | HLA-A*31:01 | 4.16 µM |
| GMLIYSMWGK | HLA-A*31:01 | 0.271 µM |
| DFIRRKYLIY | HLA-A*31:01 | ≥ 70 µM |
| IIGHIGHHY | HLA-A*31:01 | ≥ 77.9 µM |
| DAEACYIYK | HLA-A*31:01 | 0.208 µM |
| EILKINSVKY | HLA-A*31:01 | 1.04 µM |
| RSTIFDIVSK | HLA-A*31:01 | 0.222 µM |
| RARFIGGYIK | HLA-A*31:01 | 0.0594 µM |
| EFVMCLEAK | HLA-A*31:01 | 9.76 µM |
| YFSFKKCLVY | HLA-A*31:01 | 2.78 µM |
| TIKYSNDNRY | HLA-A*31:01 | ≥ 29.9 µM |

###

TARGET UNDER TEST: HLA-A*23:01
TEST DESCRIPTION: IEDB peptide-MHC binding, purified MHC/competitive/radioactivity; filed as Kd, often an IC50 or EC50 that approximates it; bounds were set here for any values at or beyond the usual limits of such assays
EXPERIMENTAL SETUP: source organism: SARS coronavirus Tor2
pKd: −log10 of the molar value.

| INPUT SEQUENCE | LIMIT SIGN | pKd |
| --- | --- | --- |
| FIDTIKSLDY | ≤ | 4.15 |
| ESVKTQFNY | ≤ | 4.11 |
| AYNVVNKGHF | = | 6.32 |
| GLAAEWVLAY | ≤ | 4.15 |
| GTDSGFAAY | ≤ | 4.11 |
| LYKLMGHFSW | = | 7.05 |
| LMANLAPHL | = | 4.93 |

###

TARGET UNDER TEST: HLA-A*30:01
TEST DESCRIPTION: IEDB peptide-MHC binding, purified MHC/competitive/radioactivity; filed as Kd, often an IC50 or EC50 that approximates it; bounds were set here for any values at or beyond the usual limits of such assays
EXPERIMENTAL SETUP: source organism: Vaccinia virus WR
Doc: threshold 20 nM (exclusive). Items with Kd beneath it return true; others return false.

| INPUT SEQUENCE | TARGET UNDER TEST | CLASS NAME |
| --- | --- | --- |
| KIFFRPTTI | HLA-A*30:01 | true |
| KSLYSHQLV | HLA-A*30:01 | true |
| GSRVRNIIA | HLA-A*30:01 | true |
| RTRDLFIAL | HLA-A*30:01 | true |
| KVMFVIRFK | HLA-A*30:01 | true |
| KQKMGPIYA | HLA-A*30:01 | false |

###

TARGET UNDER TEST: HLA-A*33:01
TEST DESCRIPTION: IEDB peptide-MHC binding, purified MHC/competitive/radioactivity; filed as Kd, often an IC50 or EC50 that approximates it; bounds were set here for any values at or beyond the usual limits of such assays
EXPERIMENTAL SETUP: source organism: Vaccinia virus WR
The threshold is 10 µM. Values of Kd beneath it are tagged fulfilled; values meeting or exceeding it are tagged not fulfilled.

| INPUT SEQUENCE | CLASS NAME |
| --- | --- |
| LLSINSSFY | fulfilled |
| ITKEIKNRDK | not fulfilled |
| YTCEDNTGIK | not fulfilled |
| AISAVYFKAK | not fulfilled |
| DFIRRKYLIY | not fulfilled |
| ESNIEIMDK | not fulfilled |
| LLYAAEMVEY | not fulfilled |
| PIYSHTERDK | not fulfilled |
| IIGHIGHHY | not fulfilled |
| LSVETITEK | fulfilled |
| ELAELLEMKY | not fulfilled |
| SILARRPTPK | not fulfilled |
